# Tested on: MOLT-4 leukemia
# method: NCI tumour cell line growth inhibition, 48 h
assay_readout: GI50

Examples from the recorded data:
{"compound": "CC(C)Nc1ncc2cc(Oc3ccc(F)cc3F)c(=O)n(C)c2n1", "GI50": "> 25 µM"}
{"compound": "O=C(Nc1ccccc1)Nc1cccc(Oc2nnc(Cl)c3ccccc23)c1", "GI50": "2.6 µM"}

Continue with the next compound.
### Prompt GI50 for NC1CCC(N[C@@H]2C[C@H]2c2ccccc2)CC1 (stereo partly specified) ?
### Response 60 µM

###

Below, each entry is listed alongside its reported TGI.
# Test system: OVCAR-5 ovarian
# method: NCI tumour cell line growth inhibition, 48 h

Examples from the recorded data:
{"chemical_structure": "Cc1cccc(C)c1NC(=O)CCc1n[nH]c(=S)o1", "target_system": "OVCAR-5 ovarian", "TGI": "> 100 µM"}
{"chemical_structure": "NC(=O)c1nnsc1NC=O", "target_system": "OVCAR-5 ovarian", "TGI": "> 100 µM"}

Continue with the next molecule.
### Prompt TGI for `CCOC(=O)/C(=C\c1ccc[nH]1)C(=O)c1ccccc1` ?
### Response > 100 µM

###

Below, each entry is listed alongside its reported TGI.
# Tested on: COLO 205 colon
# method: NCI tumour cell line growth inhibition, 48 h

### Prompt TGI for `CS(=O)(=O)OCCCOS(C)(=O)=O` ?
### Response > 100 µM

### Prompt Param item: `COc1ccc2cc(C(=O)NCCCNC(=O)c3ccc4cc(OC)ccc4c3)ccc2c1`
### Response > 100 µM

### Prompt Param item: CC(C)CN(CC(C)C)C(=O)C1CCCC[C@@H]1C(=O)O (stereo partly drawn)
### Response > 100 µM

###

Below, each entry is listed alongside its reported TGI.
# System: HOP-62 NSCLC
# method: NCI tumour cell line growth inhibition, 48 h

Examples from the recorded data:
{"chemical_structure": "CS(=O)(=O)OCCCOS(C)(=O)=O", "TGI": "> 100 µM"}
{"chemical_structure": "NS(=O)(=O)c1nnc(NS(=O)(=O)c2ccccc2C(=O)O)s1", "TGI": "> 100 µM"}
{"chemical_structure": "CC(=O)O[C@H]1C[C@H]2C(=S)Nc3ccccc3C(=S)N2C1", "TGI": "> 100 µM"}
{"chemical_structure": "Cn1c(=O)c(Oc2ccccc2)cc2cnc(NC3CCOCC3)nc21", "TGI": "> 25 µM"}
{"chemical_structure": "CCc1nc2ccc(C(F)(F)F)cc2[nH]c1=O", "TGI": "> 100 µM"}

### Prompt TGI for `COc1ccc(/C=C/NC=O)cc1` ?
### Response > 100 µM

###

Values of GI50 reported for U251 CNS appear below.

{"compound": "C[C@H](N)C(=O)N1C[C@H](CCCB(O)O)[C@](N)(C(=O)O)C1", "target_system": "U251 CNS", "GI50": "> 100000 nM"}

### Prompt Under U251 CNS: GI50 value of NC1CCC(N[C@@H]2C[C@H]2c2ccccc2)CC1 (some centres not stated) ?
### Response > 100000 nM

### Prompt Param item: COc1ccc2c(c1)C1(C(=O)N2)C(C#N)=C(c2ccccc2)Nc2c1c(-c1ccccc1)nn2-c1ccccc1 (configuration not stated)
### Response 2800 nM

### Prompt Param item: `CN1CCN(c2ccc(C(=O)Nc3cc(-c4cccc(NS(=O)(=O)c5ccccc5)c4)[nH]n3)cc2)CC1`
### Response 2870 nM

###

# System: NCI-H522 lung
# method: NCI tumour cell line growth inhibition, 48 h
assay_readout: TGI

{"molecule": "COc1cc2c(cc1OC)-c1cc3cc(OC)c(OC)cc3c(=O)n1CC2", "target_system": "NCI-H522 lung", "TGI": "> 25.7 µM"}
{"molecule": "NC1(C(=O)O)CCCC1", "target_system": "NCI-H522 lung", "TGI": "> 625 µM"}
{"molecule": "CC(=O)O[C@H]1C[C@H]2C(=S)Nc3ccccc3C(=S)N2C1", "target_system": "NCI-H522 lung", "TGI": "> 100 µM"}
{"molecule": "CC12CCC(C(Nc3ccccn3)C1=O)C2(C)C (configuration not stated)", "target_system": "NCI-H522 lung", "TGI": "> 100 µM"}
{"molecule": "COc1cc(/C=C2\\C(=O)Nc3cccc(Cl)c32)cc(OC)c1OC", "target_system": "NCI-H522 lung", "TGI": "> 100 µM"}

### Prompt Under NCI-H522 lung: TGI value of CCCCCCC(C)OC(=O)/C=C(\CC(=O)OC(C)CCCCCC)C(=O)OC(C)CCCCCC (configuration not stated) ?
### Response > 100 µM

### Prompt Param item: `O=c1c2cccnc2ncn1CCN1CCCC1`
### Response > 100 µM

### Prompt Param item: `Cn1c(=O)c2c(nc(Nc3ccc(Cl)cc3)n3c(=O)n(-c4ccccc4)c(=O)n23)n(C)c1=O`
### Response > 100 µM

### Prompt Param item: `CCOC(=O)c1cc(C(=O)c2cc(OC)c(OC)c(OC)c2)n2ccccc12`
### Response > 37.1 µM

###

Below, each entry is listed alongside its reported TGI.
# Test system: U251 CNS
# method: NCI tumour cell line growth inhibition, 48 h
The response must be a number in µM with no trailing unit.

{"compound": "CC(Cc1ccccc1)NC1=NCCO1 (centres undefined)", "TGI (µM)": 58}

Continue with the next compound.
### Prompt TGI for CCCCCCCCCCCCCCCCCCOCC(COP(=O)([O-])OCC[N+](C)(C)C)OC (centres undefined) ?
### Response 42.8

###

# Tested on: SK-MEL-2 melanoma
# method: NCI tumour cell line growth inhibition, 48 h; in the data active = GI50 below about 0.43 µM; inactive = the rest
*1 amine or outer side, *2 acyl side, *3 side chain or, on linkers, in order; H or OH if unused. Where a SMILES comes first, the peptide text is derived from it. [ ]: non-standard residue; d: D form. ξ: configuration not given here. X21 = CC[C@@H](C)C(N[*:1])C(=O)[*:2]; ξR = N=C(N)NCCCC(N)C(=O)O; ξI = CCC(C)C(N)C(=O)O; ξL = CC(C)CC(N)C(=O)O; ξK = NCCCCC(N)C(=O)O; ξV = CC(C)C(N)C(=O)O; ξA = CC(N)C(=O)O
Pick from active, inactive when you respond.

Please review the entries below; each comes with its answer.
{"compound": "O=C1CS/C(=N\\S(=O)(=O)c2ccc(N3N=C4c5ccccc5CC4C3c3ccc(Cl)cc3)cc2)N1c1ccccc1 (stereo not drawn)", "category": "inactive"}
{"compound": "CCC(C)C1NC(=O)C(CC(C)C)NC(=O)C(C)NC(=O)C(C(C)C)NC(=O)C(CCCCN)NC(=O)C(CC(C)C)NC(=O)C(C(C)C)NC(=O)[C@H](C)NC(=O)C(C(C)CC)NC(=O)C(CCCN=C(N)N)NC(=O)C(CCCCN)NC(=O)C(CCCN=C(N)N)NC(=O)C(CCCCN)NC(=O)C([C@H](C)CC)NC(=O)C(CCCCN)NC1=O (stereo partly drawn) (cyclo(A[ξV][ξL][ξK][ξV][ξA][ξL][ξI][ξK][X21][ξK][ξR][ξK][ξR][ξI]))", "category": "inactive"}
{"compound": "Cc1[nH]nc2c1N=C(c1ccccc1Cl)c1cc([N+](=O)[O-])ccc1N2", "category": "active"}
{"compound": "CSc1ncnc2c1CCN2", "category": "inactive"}
{"compound": "O=C(COc1cccc(/C=C2\\CSc3ccccc3C2=O)c1)c1ccc(Cl)cc1", "category": "inactive"}

### Prompt Could you please tell me the result logged for `COc1cc(OC)c(C(=O)/C=C/c2cccc(OC(C)=O)c2)cc1CC=C(C)C` in this assay?
### Response inactive

### Prompt Param item: `C[C@H](N)C(=O)N1C[C@H](CCCB(O)O)[C@](N)(C(=O)O)C1`
### Response inactive

### Prompt Param item: `COc1ccccc1/C=C/C(=O)/C=C/c1ccccc1OC`
### Response inactive

###

# Test system: BT-549 breast
# method: NCI tumour cell line growth inhibition, 48 h
assay_readout: GI50

### Prompt GI50 for `Nc1ncnc2c1cnn2Cc1ccc(Cl)cc1` ?
### Response 72.1 µM

### Prompt Param item: COC1=C(Br)C(=O)C2=C(C1=O)C1C3=C(C(=O)C=CC3=O)C2c2ccccc21 (stereo unspecified)
### Response 16.8 µM

### Prompt Param item: `O=C(Nc1ccccc1)Nc1cccc(Oc2nnc(Cl)c3ccccc23)c1`
### Response 3.06 µM

### Prompt Param item: `CC(C)Nc1ncc2cc(Oc3ccc(F)cc3F)c(=O)n(C)c2n1`
### Response > 25 µM

### Prompt Param item: `CCOC(=O)Nc1nc2c(C)cccc2s1`
### Response 35.8 µM

### Prompt Param item: `CCSc1nnc(-c2ccc3ccccc3c2O)n1-c1ccc(Cl)cc1`
### Response > 100 µM

Recorded values, source PubChem BioAssay (NCI).
